Listing of IC50 toward Tyrosine-protein kinase JAK2 (Homo sapiens), each taken from a published source.

Previously resolved entries follow.
smilesEntry | targetUnderTest | IC50
O=C1NCCCCOCc2cc(ccc2N2CCSCC2)Nc2nccc(n2)-c2ccc1cc2[N+](=O)[O-] | Tyrosine-protein kinase JAK2 (Homo sapiens) | 1000 to 10000 nM
CCN1CCN(Cc2cc(NC(=O)c3ccc(C)c(-c4ccc5[nH]c(NC(=O)C6CC6)nc5n4)c3)cc(C(F)(F)F)c2)CC1 | Tyrosine-protein kinase JAK2 (Homo sapiens) | 1530 nM
Cn1cc(-c2cc3nccn3c(-c3cnn(C4(CCF)CN(S(=O)(=O)C(F)F)C4)c3)n2)cn1 | Tyrosine-protein kinase JAK2 (Homo sapiens) | 10 to 100 nM

Value sought for every listed compound: IC50.
1. CN1CCC(N2Cc3cc4nc(-c5c(NC[C@@H](O)COc6cccc(C(F)(F)F)c6Cl)cc[nH]c5=O)[nH]c4cc3C2=O)CC1
2. CN(c1ncnc2[nH]ccc12)C1CCC2(CC1)CCN(C(=O)c1ccc(C#N)cc1F)CC2
3. Cn1cc(-c2cc3nccn3c(-c3cnn(C4(CCF)CN(S(C)(=O)=O)C4)c3)n2)cn1
4. O=C1c2cc3nc(-c4c(NC[C@@H](O)c5cccc(Cl)c5)cc[nH]c4=O)[nH]c3cc2C(=O)N1CCO

Resp:
1: < 500 nM; 2: 100 to 1000 nM; 3: 10 to 100 nM; 4: 500 to 5000 nM

----------
pIC50: −log10 of the molar value.
Listing of pIC50 toward Tyrosine-protein kinase JAK2 (Homo sapiens), each taken from a published source.

Previously resolved entries follow.
compound | pIC50
CC(Nc1cc[nH]c(=O)c1-c1nc2cc3c(cc2[nH]1)C(=O)N(C1CCN(C)CC1)C3=O)C1COc2ccccc2O1 (stereo not drawn) | 5.30 to 6.30
CCC(=O)c1cnc(Nc2ccc([C@H](C)N3C[C@@H](O)[C@H](O)C3)cn2)cc1Nc1cccc(-c2ncn(C)n2)c1OC | ≤ 6.30

Req: Which pIC50 is reported for this compound? O=C1Nc2ccc(cc2)OCc2cc(ccc2OCC2CC(F)(F)C2)Nc2nccc(n2)-c2ccc1cc2[N+](=O)[O-]
Resp: 5.00 to 6.00

----------
Listing of IC50 toward UniProt:O60674, each taken from a published source.

compound | targetUnderTest | IC50
CCCOC(=O)N1CCC(N2CC(CC#N)(n3cc(-c4ncnc5[nH]ccc45)cn3)C2)CC1 | UniProt:O60674 | 10 to 50 nM
CN(c1ncnc2[nH]ccc12)C1CC2(C1)CN(C(=O)c1cc3ccccc3[nH]1)C2 | UniProt:O60674 | 100 to 1000 nM
CN(c1ccccc1Cn1ccc2cnc(Nc3ccc(C(=O)NCC(C)(C)O)c(F)c3)nc21)S(C)(=O)=O | UniProt:O60674 | < 20 nM
Cc1ncc(NC(=O)c2cccc(C(F)(F)F)c2)cc1-c1ccc2c(c1)[nH]c1ncncc12 | UniProt:O60674 | ≤ 500 nM
NC(=O)c1cc(-c2cccc(C(F)(F)F)c2)nc2c1[nH]c1cc(N3CCNCC3)ccc12 | UniProt:O60674 | 6 nM

Value sought for every listed compound: IC50.
1. N#CCC1(n2cc(-c3ncnc4[nH]ccc34)cn2)CN(C2CCN(C(=O)c3cc(C(F)(F)F)ncc3Cl)CC2)C1
2. N#CCC1(n2cc(-c3ncnc4[nH]ccc34)cn2)CN(C2CCN(C(=O)c3cc4c(C(F)(F)F)cccc4s3)CC2)C1
3. CN1CCC(N2C(=O)c3cc4nc(-c5c(NC[C@@H](O)Cn6ccc7c(C#N)cccc76)cc[nH]c5=O)[nH]c4cc3C2=O)CC1
4. N#CCC(C1CCN(c2ncc(F)cn2)CC1)n1cc(-c2ccnc(Nc3ccc(N4CCOCC4)cc3)n2)cn1 (racemic)
5. CCC(=O)c1cnc(Nc2ccc(O[C@H]3CN(C)C[C@@H]3F)cn2)cc1Nc1cccc(-c2ncn(C)n2)c1OC
6. Cc1cnc2nc1Nc1cccc(c1)CCCNC(=O)c1c(F)cc(cc1F)-c1cnc(F)c(c1)N2
7. N#Cc1cc(-c2ncnc(Nc3ccc(C4CCN(C5COC5)CC4)cc3)n2)ccc1O[C@H]1CCN(C(=O)CO)C[C@H]1F
8. N#CCC1(n2cc(-c3ncnc4[nH]ccc34)cn2)CN(C2CCN(S(=O)(=O)C3CCCC3)CC2)C1

Resp:
1. 10 to 50 nM
2. ≤ 10 nM
3. 500 to 5000 nM
4. < 100 nM
5. ≥ 500 nM
6. 101 to 1000 nM
7. 292 nM
8. ≤ 10 nM

Req: Which IC50 is reported for this compound? COc1cc(F)ccc1OC[C@H](O)CNc1ccnc(O)c1-c1nc2cc3c(cc2[nH]1)C(=O)N(C1CCN(C)CC1)C3=O
Resp: 500 to 5000 nM

----------
Listing of pIC50 toward UniProtKB O60674, each taken from a published source.
pIC50: −log10 of the molar value.

Previously resolved entries follow.
compound | pIC50
N#Cc1cc(-c2ncnc(Nc3ccc(N4CCN(C5COC5)CC4)cc3)n2)ccc1OC1CCN(C(=O)CO)CC1(F)F (racemic) | 6.91
C[C@H](O)C(=O)N1CC[C@H](Oc2ccc(-c3ncnc(Nc4ccc(N5CCN(C6COC6)CC5)c(C(F)(F)F)c4)n3)cc2C#N)[C@H](F)C1 | 6.06
N#CCC1(n2cc(-c3ncnc4[nH]ccc34)cn2)CN(C2CCN(Cc3c(C(F)(F)F)ccc(Cl)c3F)CC2)C1 | ≥ 8.00
C[C@H](O)C(=O)N1CC[C@H](Oc2ccc(-c3ncnc(Nc4ccc(N5CCN(C6CCOCC6)CC5)cc4)n3)cc2C#N)[C@H](F)C1 | 6.37
Cc1nnc(-c2cnc3[nH]ccc3c2N[C@H]2C[C@@H](NS(=O)(=O)CCCC#N)C2)s1 | ≥ 8.00

Value sought for every listed compound: pIC50.
1. Cc1ccnc(-c2cnc3[nH]ccc3c2N[C@@H]2CCCN(C(=O)CC#N)C2)c1
2. O=c1[nH]c2cnc(-c3cnc4ccc(F)cn34)nc2n1[C@H](CO)c1ccc(F)cn1
3. CCS(=O)(=O)N1CC(CC#N)(n2cc(-c3nc(Nc4cn(C)cn4)nc4ccsc34)cn2)C1

Resp:
1. 7.00 to 8.00
2. > 7.00
3. 6.30 to 7.30

Value sought for every listed compound: pIC50.
1. N#CCC1(n2cc(-c3ncnc4[nH]ccc34)cn2)CN(C2CCN(C(=O)c3c(F)ccc(F)c3F)CC2)C1
2. CCC(CC(F)(F)F)n1cc(-c2nc(-c3cnn(C(CO)CO)c3)cn3nccc23)cn1 (single isomer, unassigned)
3. CCC(=O)c1cnc(Nc2cnc(O[C@@H]3CCCN(C)C3)cn2)cc1Nc1cccc(-c2ncn(C)n2)c1OC
4. COc1nc(CN2CCC(N3CC(CC#N)(n4cc(-c5ncnc6[nH]ccc56)cn4)C3)CC2)ccc1C#N
5. N#Cc1cc(-c2ncnc(Nc3ccc(N4CCN(C5COC5)CC4)cc3)n2)ccc1O[C@H]1CCN(C(=O)[C@H]2CC(F)(F)CN2)C[C@H]1F
6. CNC(=O)c1nn(C(CC#N)C2CCCC2)cc1-c1ncnc2[nH]ccc12 (centres unmarked)
7. CN(c1ncccc1Cn1ccc2cnc(Nc3ccc(N4CCOCC4)cc3)nc21)S(C)(=O)=O
8. CN(c1ncnc2[nH]ccc12)C1CC2(C1)CN(C(=O)CC#N)C2

Resp:
["≥ 8.00", "6.00 to 7.00", "≤ 6.30", "7.00 to 7.30", "≤ 6.00", "> 7.70", "> 7.70", "6.00 to 7.00"]

Value sought for every listed compound: pIC50.
1. N#Cc1cc(-c2ncnc(Nc3cnn(CCO)c3)n2)ccc1O[C@H]1CCN(C(=O)CO)C[C@H]1F
2. N#CC[C@@H](C1CCCC1)n1cc(-c2ncnc3[nH]ccc23)c(N)n1
3. C[C@H](O)C(=O)N1CC[C@H](Oc2ccc(-c3ncnc(Nc4ccc(N5CCN(CC6COC6)CC5)cc4)n3)cc2C#N)[C@H](F)C1

Resp:
1. 6.22
2. > 7.70
3. 6.32

Value sought for every listed compound: pIC50.
1. Cc1csc(-c2cnc3[nH]ccc3c2N[C@H]2C[C@@H](NS(=O)(=O)c3cccc(C#N)c3)C2)n1
2. CN(c1ncccc1Cn1ncc2cnc(Nc3ccc4c(c3)CCC(=O)N4)nc21)S(C)(=O)=O
3. N#CCC(C1CC1)n1cc(-c2ccnc(Nc3ccc(N4CCOCC4=O)cc3)n2)cn1 (racemic)
4. CC1(C)CN(C(=O)[C@@H]2CCC(=O)N2)C[C@H](F)[C@@H]1Oc1ccc(-c2ncnc(Nc3ccc(N4CCN(C5COC5)CC4)cc3)n2)cc1C#N
5. Cn1cc(-c2cc3nccn3c(-c3cnn(C(CC#N)c4ccccc4Cl)c3)n2)cn1 (centres unmarked)

Resp:
1: ≥ 8.00; 2: > 7.70; 3: > 7.00; 4: 6.32; 5: 7.00 to 8.00

Value sought for every listed compound: pIC50.
1. COc1c(Nc2cc(Nc3ccc(CS(C)(=O)=O)cn3)ncc2C(=O)C2CC2)cccc1-c1ncn(C)n1
2. N#CCC(C1CCCC1)n1cc(-c2ccnc(Nc3cccc(NC(=O)CN4CCOCC4)c3)n2)cn1 (racemic)
3. CCN(C)Cc1cc(C(=O)N2CCC(N3CC(CC#N)(n4cc(-c5ncnc6[nH]ccc56)cn4)C3)CC2)nc(C(F)(F)F)n1
4. Cc1cnc2nc1Nc1cc(ccc1F)CCCNC(=O)c1ncc(cc1F)-c1cnc(F)c(c1)N2
5. CC#CC(=O)Nc1cccc(Sc2ccnc(Nc3ccc(N4CCOCC4)cc3)n2)c1

Resp:
1. ≤ 6.30
2. > 7.00
3. 7.30 to 8.00
4. 7.00 to 7.96
5. < 6.00
